# STUDY SYSTEM: human PD-L1 expressed on cells (CHO-PD-L1, HCC1954, HCC827) (human, UniProt Q9NZQ7 19-290)
# ASSAY: cell-based or functional assay
IC50, neutralization of PD-L1 in NF-AT potency assay values, listed per item

Worked cases, IC50, neutralization of PD-L1 in NF-AT potency assay given:
| BINDER | MEASUREMENT |
| --- | --- |
| PRO830 (scFv, V domains shown, also called 33-03-G02; parental scFv) VH: QVQLQESGPGLVKPSETLSLTCKVSGFSFSSGYDMCWIRQPPGKGLEWIGCVVAGSVDITYYASWAKGRVTISVDSSKNQFSLKLSSVTAADTAVYYCARKDAYSDAFNLWGQGTLVTVSS VL: DIQMTQSPSSLSASVGDRVTITCQASQSINDYLAWYQQKPGKAPKLLIYKASTLASGVPSRFSGSGSGTDFTLTISSLQPEDFATYYCQQGYIITDIDNVFGTGTKVTVLG | 0.0204 µg/mL |
| PRO1075 (scFv, V domains shown, also called 33-03-G02 VL-Q108A) VH: QVQLQESGPGLVKPSETLSLTCKVSGFSFSSGYDMCWIRQPPGKGLEWIGCVVAGSVDITYYASWAKGRVTISVDSSKNQFSLKLSSVTAADTAVYYCARKDAYSDAFNLWGQGTLVTVSS VL: DIQMTQSPSSLSASVGDRVTITCQASQSINDYLAWYQQKPGKAPKLLIYKASTLASGVPSRFSGSGSGTDFTLTISSLQPEDFATYYCQAGYIITDIDNVFGTGTKVTVLG | 0.828 µg/mL |
| PRO1089 (scFv, V domains shown, also called 33-03-G02 VH-Y112A) VH: QVQLQESGPGLVKPSETLSLTCKVSGFSFSSGYDMCWIRQPPGKGLEWIGCVVAGSVDITYYASWAKGRVTISVDSSKNQFSLKLSSVTAADTAVYYCARKDAASDAFNLWGQGTLVTVSS VL: DIQMTQSPSSLSASVGDRVTITCQASQSINDYLAWYQQKPGKAPKLLIYKASTLASGVPSRFSGSGSGTDFTLTISSLQPEDFATYYCQQGYIITDIDNVFGTGTKVTVLG | 1.28 µg/mL |

Next item in the queue.
Q. Entry under review: PRO1494 (scFv, V domains shown) VH: QVQLQESGPGLVKPSETLSLTCKVSGFSFSSGYDMCWIRQPPGKGLEWIGCVVAGSVDITYYASWAKGRVTISVDSSKNQFSLKLSSVTAADTAVYYCARKDAASDAFNLWGQGTLVTVSS VL: DIQMTQSPSSLSASVGDRVTITCQASQSINDYLAWYQQKPGKAPKLLIYKASTLASGVPSRFSGSGSGTDFTLTISSLQPEDFATYYCQAGYIITDIDNVFGTGTKVTVLG . Reported IC50, neutralization of PD-L1 in NF-AT potency assay?
A. 36.8 µg/mL
